system: SN12C; assay: NCI tumour cell line growth inhibition, 48 h
Active and inactive are the calls of the source. No stated cut-off is given here; in the data, active = GI50 up to about 1.1 µM and inactive = higher. Where a SMILES comes first, the peptide text is derived from it. The star is where a group is joined. Fmoc = O=C(OCC1c2ccccc2-c2ccccc21)*; Boc = CC(C)(C)OC(=O)*
Outcome codes: active, inactive

compound	label.value
CC(C)(C)OC(=O)NCCCCC(NC(=O)OCC1c2ccccc2-c2ccccc21)C(=O)N1CCCC1C(=O)NCC(N)=O (stereo not drawn) (Fmoc-Lys(Boc)-Pro-Gly-NH2; configuration not given here)	inactive
CC1C[C@]2(C)C(=O)Nc3ccccc3[C@@H]2Nc2ccccc21 (stereo not given in full)	inactive
N=C(N)N1CCC(N2CCOCC2)CC1	inactive
COC(COC(N)=O)C1=C(N2CC2)C(=O)C(C)=C(N2CC2)C1=O (stereo not given)	active
Cc1cc(=O)oc2cc(OC(=O)N(C)C)c(Cl)cc12	inactive
COc1ccc(C2c3c(-c4ccccc4)nn(-c4ccccc4)c3Oc3ncn(N)c(=N)c32)cc1OC (stereo not given)	inactive
S=c1sc2cscc2s1	inactive
COc1c2c(cc3occ(-c4ccc(CC=C(C)C)cc4)c(=O)c13)OC(C)(C)C=C2	inactive
CN(C)CC1CCCc2ccccc2C1=O (stereo not given)	inactive
C=C(C)c1nc(C#N)c(N)o1	inactive
CCNC(=O)O/N=C1\CCC2[C@@H]3CC=C4C[C@@H](OC(=O)NCC)CC[C@]4(C)C3CC[C@]12C (stereo not given in full)	inactive
COC(=O)C1(Cc2ccc3c(c2)CCC3)Cc2cc3c(cc2C1)CCC3	inactive
C[C@]12CC/C(=N\OCCN3CCCCC3)C=C1CCC1C2CC[C@@]2(C)C1CC[C@]2(C)O (stereo not given in full)	inactive
CCOC(=O)CCC(NC(=O)Cc1ccc(Oc2nc3ccccc3nc2-c2cccs2)cc1)C(=O)OCC (stereo not given)	inactive
CCOC(=O)c1cc(-c2ccc(OC)cc2)c([N+](=O)[O-])n1C	inactive
CCc1n[nH]c(=O)n1/N=C(\C)c1ccccc1	inactive
CNc1nnc(CNc2ccc(-c3nnc(NC)n3N)cc2)n1N	inactive
N=C(N)NCCCS(=O)(=O)Nc1ccc(Nc2c3ccccc3nc3cc([N+](=O)[O-])ccc23)cc1	inactive
COc1ccc([C@H]2C=C(c3cc(F)c(Cl)cc3Cl)N=c3s/c(=C\c4ccc(-c5ccc(Cl)cc5Cl)o4)c(=O)n32)cc1	inactive
O=C1CN(C(=O)c2ccccc2)Cc2[nH]c3ccccc3c21	inactive

====

tested on: OVCAR-3; experiment: NCI tumour cell line growth inhibition, 48 h
Active and inactive are the calls of the source. Cut-off read from the data, not from the text of the source: active = GI50 up to about 1.1 µM and inactive = higher.
Possible outcomes: active, inactive

compound	target.system	label.value
Cc1cc(C)c2c(n1)S(=O)(=O)N(CCCN1CCN(c3cccc(C(F)(F)F)c3)CC1)C(C(=O)c1ccccc1)=C2O	OVCAR-3	inactive
COC(=O)C(C(=O)C(=O)Nc1ccccc1C(C)=O)c1nc2ccc(Cl)cc2nc1O (centres undefined)	OVCAR-3	inactive
CN(C)CCCN1c2ccc3ccccc3c2Sc2cccc(Cl)c21	OVCAR-3	inactive
CC(=O)OC12C(C)=C(C)C(=O)N1c1ccccc1N2C(C)=O (centres undefined)	OVCAR-3	inactive
CC(C)CCCC(C)[C@H]1CC[C@H]2[C@@H]3CC[C@H]4C[C@@H](CCC=C(c5cc(Cl)c(O)c(C(=O)OC(C)(C)C)c5)c5cc(Cl)c(O)c(C(=O)OC(C)(C)C)c5)CC[C@]4(C)[C@H]3CC[C@]12C (some centres undefined)	OVCAR-3	inactive
COc1ccc(OC)c(-c2cn3c(n2)sc2ccccc23)c1	OVCAR-3	inactive
Cn1c2c3ccccc3nc-2c(O)c2ccccc21 [HYDROXYCRYPTOLEPINE]	OVCAR-3	inactive
COc1cc2ncnc(Nc3cccc(Br)c3)c2cc1OC	OVCAR-3	inactive
N#CCCC1C(C#N)C2CC1C1C3C=CC(C3)C21 (centres undefined)	OVCAR-3	inactive
O/N=N/c1ccc(Sc2ccc(/N=N/O)cn2)nc1	OVCAR-3	inactive
CC#CC(O)(C(=O)OC1CC2CCC(C1)N2C)C1CCCC1 (centres undefined)	OVCAR-3	inactive
CSC1=NN(c2ccccc2)C(=O)C1=C(SC)SC	OVCAR-3	inactive
Cc1ccc(-n2cc(-c3ccc(Cl)cc3)c3c(NN)ncnc32)cc1	OVCAR-3	active
NC(=S)N/N=C1\C(=O)Nc2c(Cl)cc(Cl)cc21	OVCAR-3	inactive
COC1OC(Cn2c(C)nc(Br)c2Br)C(O)C(O)C1O (centres undefined)	OVCAR-3	inactive
Cc1ccccc1NC(=O)C(=O)C(C(=O)c1ccccc1F)C1OC(=O)c2ccccc21 (centres undefined)	OVCAR-3	inactive
CCCCCCCCCC(=O)N[C@@H](c1ccco1)[C@@H](O)C(=O)O[C@H]1C[C@@]2(O)[C@@H](OC(=O)c3ccccc3)[C@@H]3[C@]4(OC(C)=O)CO[C@@H]4C[C@H](O)[C@@]3(C)C(=O)[C@H](OC(C)=O)C(=C1C)C2(C)C	OVCAR-3	active
CC(C)[Si](OC12CCC(CC1O)CC2CO)(C(C)C)C(C)C (centres undefined)	OVCAR-3	inactive
CCN(CC)N1C(=O)[N-][N+](CC)(CC)C1=O	OVCAR-3	inactive

====

test system: KM-20L2; assay: NCI tumour cell line growth inhibition, 48 h
Active and inactive are the calls of the source. No stated cut-off is given here; in the data, active = GI50 up to about 1.1 µM and inactive = higher.
Outcome codes: YES (active), NO (inactive)

> print(dat)
                                    compound  target.system  label.value
 1  O=C(Nc1nc2ncn(CCNCc3ccccc3)c2c(=O)[nH]1)c1ccccc1        KM-20L2           NO
 2               Oc1cc2c(cc1O)-c1[nH]ncc1CC2        KM-20L2           NO
 3  CC(=O)OC1CCC2C(=CCC3C2(C)C(=O)CC2(C)C(C4(C)OC(C(C)C)=CC4=O)C(O)CC32C)C1(C)C (stereo not given)        KM-20L2           NO
 4  COC(=O)[C@@H]1C[C@H](c2ccc(OC)c(OC)c2)OC1=O.COC(=O)[C@H]1C[C@H](c2ccc(OC)c(OC)c2)OC1=O        KM-20L2           NO
 5           COc1cc(/C=C/c2ccncc2)cc(OC)c1OC        KM-20L2           NO
 6  Cc1cc2c(=O)cc(-c3ccc(Cl)c(Cl)c3)oc2c(C(=O)O)c1C        KM-20L2           NO
 7  Cc1ccccc1NC(=O)C(=O)C(C(=O)c1ccccc1F)C1OC(=O)c2ccccc21 (stereo not given)        KM-20L2           NO
 8  C[C@]12CCC(=O)C(O)=C1CC[C@@H]1C2CC[C@]2(C)NC(=O)CCC12 (stereo not given in full)        KM-20L2           NO
 9         Cc1cc2occ(-c3ccc(Cl)cc3)c2c(=O)o1        KM-20L2           NO
10  COc1ccccc1/C=C(\NC(=O)c1ccccc1)c1nc2ccccc2[nH]1        KM-20L2           NO
11  Cc1c[nH]c2c1C13CC1CN(C(=O)c1cc4cc(NC(=O)c5cc6ccccc6o5)ccc4[nH]1)C3=CC2=O (stereo not given)        KM-20L2          YES
12  N[C@H]1C2C3CC4C5CC(C42)C1(c1ccccc1)C53 (stereo not given in full)        KM-20L2           NO
13  COC(COC(N)=O)C1=C(N2CC2)C(=O)C(C)=C(N2CC2)C1=O (stereo not given) [CARBOQUONE]        KM-20L2          YES
14  COC(=O)C(C(=O)C(=O)Nc1ccccc1C(C)=O)c1nc2ccc(Cl)cc2nc1O (stereo not given)        KM-20L2           NO
15  C/C(=N/N(C=O)C[n+]1ccccc1)C(CN(CC(C)C)CC(C)C)C(=O)Nc1ccc(C)cc1C (stereo not given)        KM-20L2           NO
16                         C/N=N/N(C)C(=O)NC        KM-20L2           NO
17  NC(=O)c1c([N+](=O)[O-])cc(C(F)(F)F)cc1[N+](=O)[O-]        KM-20L2           NO
18  Cc1[nH]c(=O)[nH]c(=O)c1/C=C/C(=O)NC(CO)C[S+]([O-])C[S+](C)[O-] (stereo not given)        KM-20L2           NO
19  COc1ccc(/C(=C/n2ccnc2)C(=O)c2ccc(OC)c(OC)c2)cc1        KM-20L2           NO
20  CC(=O)N(/N=C\c1ccc([N+](=O)[O-])cc1)c1ccccc1        KM-20L2           NO
